# measurement_description: chemical genetic growth profiling, strain panel (AID 1159580);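 note: tested at 20 µM; growth read once vehicle control cultures reached saturation at 30 °C; 1 = growth at the plate median or of vehicle wells; lower values mean less growth of the strain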
# condition_set: S. cerevisiae deletion strains, growth OD, locus YJL187C, strain SWE1, active compounds read low
Screen size: about 5,500 compounds; about 2,000 (36%) were called active. Inconclusive results (about 18%) are left out. This is one part of the list.
endpoint_label: normalized growth

1) COc1ccc(S(=O)(=O)Nc2ccccc2Oc2ccc(Cl)cc2Cl)cc1OC; 1 (inactive)
2) CC(C)(C)C(=O)Nc1ccc(F)cc1; 1.01 (inactive)
3) CC1CC2C3CC(F)C4=CC(=O)C=CC4(C)C3(F)C(O)CC2(C)C1(O)C(=O)CO (configuration not stated); 0.986 (inactive)
4) CCN(CC)CCNC(=O)c1cc(Br)c(N)cc1OC; 0.993 (inactive)
5) O=C(O)c1cc2ccccc2[nH]1; 0.988 (inactive)
6) C=Cc1c2[nH]c(c1C)C=c1[nH]c(c(C)c1C=C)=CC1N=C(C=c3[nH]c(c(C)c3CCC(=O)O)=C2)C(CCC(=O)O)=C1C (configuration not stated); 1 (inactive)
7) COc1ccc2c(c1OC)C(=O)O[C@@H]2[C@H]1c2cc3c(cc2CCN1C)OCO3; 0.988 (inactive)
8) CC(C)(C)c1cc(-c2csc(-c3ccc(Cl)cc3)n2)cc(C(C)(C)C)c1O; 1.02 (inactive)
9) COc1ccc(CN2C(=O)CSC2c2ccccn2)cc1 (configuration not stated); 0.989 (inactive)
10) Clc1cccc(Cl)c1CSC1=NCCCN1C1CCCCC1; 1.01 (inactive)
11) CC1=C(/C=C/C(C)=C/C=C/C(C)=C/C=C/C=C(C)/C=C/C=C(C)/C=C/C2=C(C)C(=O)C(O)CC2(C)C)C(C)(C)CC(O)C1=O (configuration not stated); 1.02 (inactive)
12) COc1ccc(C2=C(C(C)=O)C(C)=NC(=S)C2C#N)cc1 (configuration not stated); 1 (inactive)
13) O=C(O)c1c2ccccc2cc2ccccc12; 0.985 (inactive)
14) C=C1C2CC[C@H]3[C@]4(C)C[C@H](OC5OC(CO)C(OS(=O)(=O)O)C(OS(=O)(=O)O)C5OC(=O)CC(C)C)C[C@@H](C(=O)O)[C@H]4CC[C@]3(C2)[C@H]1O (some centres not stated); 1.02 (inactive)
15) COc1ccc2c(C)cc(=O)oc2c1; 0.997 (inactive)
16) COCCc1ccc(OCC(O)CNC(C)C)cc1 (configuration not stated); 1.04 (inactive)
17) COc1cc2c(cc1OC)Cc1cc(OC)c(OC)cc1Cc1cc(OC)c(OC)cc1C2; 1.03 (inactive)
18) Cc1cc(O)c(C=O)c(O)c1C(=O)O; 0.998 (inactive)
19) CN(C)C(=S)SSC(=S)N(C)C; 0.0566 (active)
20) CN1CCCN=C1COC(=O)C(O)(c1ccccc1)C1CCCCC1 (configuration not stated); 0.999 (inactive)
21) CC(C(=O)O)c1ccc(-c2ccccc2)c(F)c1 (configuration not stated); 0.985 (inactive)
22) CCO/C=C1\SC(=S)N(CCc2ccccc2)C1=O; 0.897 (active)
